Tested on: pan-HDAC
test_name: Whole-cell HDAC inhibition assay in HCT116 cells
measurement_context: read-out: HDAC inhibition IC50 HCT116, HCT116, 18 hr incubation, Boc-Lys(ε-Ac)-AMC substrate
pIC50: −log10 of the molar value.
# pIC50 values compiled below
quantity_name: pIC50

{"compound": "CCC(C)SS/C=C\\COC(C)=O (stereo not shown) [Latisulfide A (13), Latisulfide A]", "study_target": "pan-HDAC", "value_comparator": "<", "quantitative_result": 4.15}
{"compound": "CCC(C)SS/C=C/COC(=O)CC(C)(C)O (stereo not shown) [Persicasulfide C (3), Persicasulfide C]", "study_target": "pan-HDAC", "value_comparator": "<", "quantitative_result": 4.15}
{"compound": "C=C(C)C(=O)OC/C=C\\SSC(C)CC (stereo not shown) [Latisulfide B (14), Latisulfide B]", "study_target": "pan-HDAC", "value_comparator": "<", "quantitative_result": 4.15}
{"compound": "CC(C)=CCC/C(C)=C/CC/C(C)=C/COc1ccc2ccc(=O)oc2c1", "study_target": "pan-HDAC", "value_comparator": "<", "quantitative_result": 4.15}
{"compound": "C/C=C(/C)C(=O)OC/C=C\\SSC(C)CC (stereo not shown) [Latisulfide C (15), Latisulfide C]", "study_target": "pan-HDAC", "value_comparator": "=", "quantitative_result": 4.59}
{"compound": "CCC(C)SS/C=C\\CO (stereo not shown) [Latisulfide D (16), Latisulfide D]", "study_target": "pan-HDAC", "value_comparator": "<", "quantitative_result": 4.15}
{"compound": "CCC(C)SS/C=C\\COC(=O)/C=C/c1ccc(O)c(OC)c1 (stereo not shown) [Latisulfide E (17), Latisulfide E]", "study_target": "pan-HDAC", "value_comparator": "=", "quantitative_result": 4.70}
{"compound": "CC1=CC(=O)C2C(C)(C)C(=O)CC[C@@]2(C)[C@@H]1COc1ccc2ccc(=O)oc2c1 (stereo partly shown)", "study_target": "pan-HDAC", "value_comparator": "<", "quantitative_result": 4.15}
{"compound": "CC1=CC[C@@H]2C(C)(C)[C@H](O)CC[C@@]2(C)[C@@H]1COc1ccc2ccc(=O)oc2c1", "study_target": "pan-HDAC", "value_comparator": "=", "quantitative_result": 5.28}
{"compound": "CC1=CC(=O)[C@@H]2C(C)(C)[C@H](O)CC[C@@]2(C)[C@@H]1COc1ccc2ccc(=O)oc2c1", "study_target": "pan-HDAC", "value_comparator": "=", "quantitative_result": 4.58}
